For each entry below, report its IC50 value.
Target: TBK1 (Homo sapiens, UniProt Q9UHD2)
Sequence (Q9UHD2 1-729): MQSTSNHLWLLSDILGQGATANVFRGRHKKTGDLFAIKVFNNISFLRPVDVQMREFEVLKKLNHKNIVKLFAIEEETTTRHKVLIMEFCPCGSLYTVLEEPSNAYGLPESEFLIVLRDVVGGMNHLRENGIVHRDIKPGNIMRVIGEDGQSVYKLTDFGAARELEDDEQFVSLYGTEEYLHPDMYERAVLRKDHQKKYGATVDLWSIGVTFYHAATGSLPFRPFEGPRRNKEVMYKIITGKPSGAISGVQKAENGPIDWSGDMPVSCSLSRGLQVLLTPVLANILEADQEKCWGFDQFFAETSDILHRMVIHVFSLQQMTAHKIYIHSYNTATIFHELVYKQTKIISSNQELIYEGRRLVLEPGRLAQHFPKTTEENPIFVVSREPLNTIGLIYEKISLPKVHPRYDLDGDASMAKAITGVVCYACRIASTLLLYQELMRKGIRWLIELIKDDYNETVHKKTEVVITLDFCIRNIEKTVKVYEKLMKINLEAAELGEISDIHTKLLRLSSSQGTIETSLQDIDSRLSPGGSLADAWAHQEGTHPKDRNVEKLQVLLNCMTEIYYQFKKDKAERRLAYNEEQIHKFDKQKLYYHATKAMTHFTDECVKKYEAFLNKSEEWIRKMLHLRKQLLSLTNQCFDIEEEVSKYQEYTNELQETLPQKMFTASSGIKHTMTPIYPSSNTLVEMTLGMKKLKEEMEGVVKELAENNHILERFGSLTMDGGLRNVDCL
Test: TBK biochemical assay
Conditions: 10 point 1:4 dose response, 30 uM top concentration, 90 min at 25° C., LabChip EZ Reader II; read-out: TBK1_IC50

GET /values?readout=IC50&item= COc1nc(Nc2nccc(-c3ccc(O[C@H]4CCNC[C@H]4F)c(C#N)c3)n2)ccc1C(=O)N(C)C [Example 74]
< 100 nM

Please report the recorded IC50 for COc1nc(Nc2ncc(C)c(-c3ccc(O[C@H]4CCN(C(=O)[C@H](C)O)CC4(F)F)c(C#N)c3)n2)ccc1N1CCN(C2COC2)CC1 [Example 284] .
< 100 nM

Tell me the measured IC50 of CN1CCN(c2ccc(Nc3nccc(-c4ccc(O[C@H]5CCN(C)C[C@H]5F)c(C#N)c4)n3)nc2)CC1 [Example 84] , please.
100 to 1000 nM

I would be grateful if you could share the reported IC50 for COc1nc(Nc2nccc(-c3ccc(OC4CN(C(=O)[C@@H](C)O)C4)c(C#N)c3)n2)ccc1N1CCN(C2COC2)CC1 [Example 176] .
100 to 1000 nM
